- methodNotes: optical density shifts of acrAB sulA E. coli – strain DRC41, OD650, 48 h, E. coli filamentation inducer project, primary screen (AID 1152);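 further: E. coli MC1000 strain DRC41 lacking acrAB efflux pump and sulA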
- experimentalParameters: higher = more signal, called active from +8 up or from −8 down
recordedEndpoint: z-score
One number for each entry.

molecule | z-score
COCCOC(=O)N1C(=O)[C@@]2(c3cc(C#CCNC(N)=O)ccc31)[C@H](c1ccc(OCCO)cc1)N1[C@H](c3ccccc3)[C@H](c3ccccc3)OC(=O)[C@H]1[C@@H]2C(=O)N1CCN(c2ncccn2)CC1 | -0.283
COc1ccc(C(=O)Nc2ccc(CN3C(=O)[C@]4(O[C@H](CCn5cc([C@H](O)c6ccccc6)nn5)[C@@H]([Si](C)(C)c5ccc(OC)cc5)[C@@H]4C)c4ccccc43)cc2)cc1 | -0.372
COCCOC(=O)N1C(=O)[C@@]2(c3cc(C#CCNC(N)=O)ccc31)[C@H](C(=O)N1CCCCCCC1)[C@H]1C(=O)O[C@H](c3ccccc3)[C@H](c3ccccc3)N1[C@@H]2c1ccc(OCCO)cc1 | 0.0904
C#CCNS(=O)(=O)N(C)C | 1.14
COc1ccc(C#Cc2ccc3c(c2)[C@]2(C(=O)N3)[C@H](c3ccc(OCCO)cc3)N3[C@H](c4ccccc4)[C@H](c4ccccc4)OC(=O)[C@H]3[C@@H]2C(=O)N2CCN(c3ncccn3)CC2)cc1 | 2.34

Hi team, please reply with z-score for each item in this list.
1. COc1cc(NN2C(C(O)c3ccc(I)cc3)C=CC3C(=O)N(C)C(=O)C32)cc(OC)c1OC (stereo unspecified)
2. CC(C)CCC[C@@H](C)[C@H]1CC[C@@]2(C)C3=C(CC[C@]12C)[C@@]1(C)CC[C@H](OC(=O)C(C)(C)C)C(C)(C)C1CC3 (stereo partly specified)
3. NC(=O)[C@H]1[C@@H]2C(=O)O[C@@H](c3ccccc3)[C@@H](c3ccccc3)N2[C@@H](c2ccc(O)cc2)[C@]12C(=O)Nc1ccc(C#CC3(O)CCCCCC3)cc12
4. C=C(C(=O)CC[C@H](OC(=O)c1cccnc1)c1ccc(OCCO)cc1)C(C)C
5. COC(=O)[C@@]1(Cc2ccc(OC)cc2)[C@H]2c3cc(C(=O)N4CCCC4)n(Cc4ccc(C)o4)c3C[C@H]2CN1C(=O)c1ccccc1
6. O=C1C2C=CC(C(O)c3ccc(Br)cc3)N(Nc3ccccc3)C2C(=O)N1c1ccccc1 (stereo unspecified)

RESULT:
-0.0511
0.836
0.359
-0.903
-1.5
-1.78

Hi team, please reply with z-score for each item in this list.
1. COc1ccc(CCNC(=O)[C@@H]2c3ccccc3C(=O)N(Cc3ccccc3)[C@H]2c2ccc(CO)cc2)cc1
2. COC(=O)c1c(CC[C@@H](CO)NC(=O)N[C@@H](C)Cn2cc(C3(O)CCCC3)nn2)oc(C(C)=O)c1C(=O)OC
3. CO[C@H]1O[C@H](CO)[C@@H](OC(=O)Nc2cccc(F)c2)[C@H](OC(=O)Nc2ccc3c(c2)OCO3)[C@H]1OC(=O)Nc1ccc2c(c1)OCO2
4. COCCCNC(=O)[C@@]1(C)c2ccccc2C(=O)N(c2ccc(C)cn2)[C@H]1c1ccc(CO)cc1

RESULT:
1: 1.81; 2: -0.274; 3: 0.903; 4: -0.0018

Hi team, please reply with z-score for each item in this list.
1. C=CCOC(=O)[C@H]1[C@@H]2C(=O)O[C@@H](c3ccccc3)[C@@H](c3ccccc3)N2[C@@H](c2ccc(OCCOC(=O)[C@H]3C[C@H]4C(=O)N[C@@H](CCCCN(C)C)C(=O)N4[C@H]3c3ccc(O)cc3)cc2)[C@]12C(=O)Nc1ccccc12
2. OCc1ccc(-c2cc[n+](Cc3cccc(OC(F)(F)F)c3)cc2)cc1
3. C=CC[C@]1(C(=O)N2CCOCC2)N=C(c2ccc(OCCCO)cc2)O[C@H]1c1ccccc1CN=[N+]=[N-]

RESULT:
1: -0.558; 2: 0.0027; 3: 0.434

Hi team, please reply with z-score for each item in this list.
1. CCCc1cc2c(n1Cc1ccc(OC)cc1)C(C)C1CN(C(=O)c3ccccc3)C(C)(C(=O)OC)C21 (stereo unspecified)
2. C=CCC(OC(C)=O)[C@@H]1[C@@H](N(Cc2ccc(-c3cccc(C(F)(F)F)c3)o2)C(=O)c2cccc3ccccc23)c2cc(OCCCO)ccc2N1C(=O)c1ccc(-c2ccccc2)cc1 (stereo partly specified)
3. COCCOC(=O)N1C(=O)[C@@]2(c3cc(C#CCNC(N)=O)ccc31)[C@H](C(N)=O)[C@H]1C(=O)O[C@H](c3ccccc3)[C@H](c3ccccc3)N1[C@@H]2c1ccc(OCCO)cc1
4. O=C1C2C=CC(C(O)c3cccc4ccccc34)N(Nc3ccccc3)C2C(=O)N1c1ccccc1 (stereo unspecified)
5. C=CCN1C(=O)[C@@]2(O[C@@H](CCn3cc([C@H](O)c4ccccc4)nn3)[C@H]([Si](C)(C)c3ccc(OC)cc3)[C@H]2C)c2cc(NC(=O)c3ccc(OC)cc3)ccc21
6. O=C1OCCC=C[C@H]2OC34C=CCN(Cn5nnc6ccccc65)C(=O)[C@H]3N(CCCCCO)C(=O)[C@@H]4C12 (stereo partly specified)
7. CCOC(=O)C[C@H]1[C@H](OC(=O)c2ccc(C(=O)c3ccccc3)cc2)[C@@H](NC(=O)C2CCCCC2)c2cc(OCCCO)ccc2N1C(=O)Cc1ccc(OC)cc1

RESULT:
-2.02
-0.985
-0.618
-0.692
0.55
0.592
0.522

z-score for "C=CCOc1ccc([C@@H]2CC=C(C(=O)OCC)[C@H](c3cccc(Br)c3)N2S(=O)(=O)c2ccc(C)cc2)cc1" is 0.251

---

Exercise: for every item that follows, state its recorded z-score.
- methodNotes: JC-1 mitochondrial potential readout, lung cancer cells – cell-based, A549, JC-1 fluorescence, basal, 24 h, 100 nL, profiling panel (AID 1138);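 further: A549 lung adenocarcinoma cells under basal conditions with no added stimulus; test concentration not given here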
- experimentalParameters: higher = more signal
Answers are plain numbers.

compound | z-score
[N-]=[N+]=Nc1ccccc1C[C@]1(C(=O)NCCN2CCOCC2)N=C(c2ccc(OCCCO)cc2)O[C@H]1c1ccccc1N=[N+]=[N-] | 2.42
CC(C)C[C@@H]1NC(=O)[C@@]23C(=O)N[C@@H](Cc4ccccc4)C2[C@H](C)[C@@]2(C)O[C@H]2C3/C=C/C/C=C\CNC(=O)[C@@H]2CCCN2C1=O (stereo partly specified) | 0.579
COCCOC(=O)N1C(=O)[C@@]2(c3cc(C#CCNC(N)=O)ccc31)[C@H](C(N)=O)[C@H]1C(=O)O[C@H](c3ccccc3)[C@H](c3ccccc3)N1[C@@H]2c1ccc(OCCO)cc1 | -2.25
O=C1O[C@H](c2ccccc2)[C@H](c2ccccc2)N2[C@H]1[C@@H](C(=O)NC[C@H](O)c1ccccc1)[C@]1(C(=O)Nc3ccccc31)[C@H]2c1ccccc1OCCO | -0.789
COC(=O)[C@@]1(Cc2ccc(F)cc2)[C@H]2c3cc(C(=O)N(C)C)n(CCSCCO)c3C[C@H]2CN1C(=O)c1ccccc1 | 0.554

Field: next compound
z-score for CC(C)=CCCC(C)=CC(O)C1C=CC2C(=O)N(c3ccccc3)C(=O)C2N1Nc1ccc([N+](=O)[O-])cc1 (stereo unspecified) is -0.78

---

Exercise: for every item that follows, state its recorded composite z-score.
- methodNotes: probe aNOTCH3 binding on compound microarray – biochemical, small-molecule microarray, 635/667 nm fluorescence, primary screen (AID 1120);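 further: probe is a biotin-tagged antibody raised against NOTCH3 rather than NOTCH3 protein; score merges spot fluorescence near 667 nm with spot signal to noise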
- experimentalParameters: higher = more signal
Give bare numbers.

Solved cases (2 shown):
compound | composite z-score
COC(=O)[C@@]1(Cc2ccccc2)[C@H]2c3cc(C(=O)N4CCCC4)n(CCO)c3C[C@H]2CN1C(=O)c1ccccc1 | 1.37
O=C(Nc1cc(Br)ccc1C(=O)NCc1cccc(O)c1)c1ccccc1 | 0.151

Hi team, please reply with composite z-score for each item in this list.
1. C=CCNC(=O)[C@H]1[C@@H]2C(=O)O[C@@H](c3ccccc3)[C@@H](c3ccccc3)N2[C@@H](c2ccc(O)cc2)[C@]12C(=O)N(C(=O)OCCOC)c1ccc(C#CC3(O)CCCCCC3)cc12
2. COc1ccc(C#Cc2ccc3c(c2)[C@]2(C(=O)N3)[C@H](C(=O)O)[C@H]3C(=O)O[C@H](c4ccccc4)[C@H](c4ccccc4)N3[C@@H]2c2ccc(OCCO)cc2)cc1
3. C=C(COC)/C(=C/C[C@@H](OC(=O)c1ccncc1)c1cccc(OCCO)c1)c1cc(C(=O)OC)ccc1OC
4. N#Cc1ccc(NN2C(C(O)c3ccccc3)C=CC3C(=O)N(c4ccccc4)C(=O)C32)cc1 (stereo not given)

RESULT:
1. 0.207
2. 0.364
3. 0.0297
4. 0.222

Hi team, please reply with composite z-score for each item in this list.
1. Cc1ccc(F)cc1S(=O)(=O)N[C@@H]1CCN(C(=O)c2ccc(OC(C)C)cc2)C1
2. CC1C=C(CCCO)C=C(C(=O)OCCS(C)(=O)=O)C(C(=O)OCCS(C)(=O)=O)=CN1Cc1cccc(OC(F)(F)F)c1 (stereo not given)
3. C=C(C)[C@@H]1CC=C(C(O)C2C=CC3C(=O)N(C4CCCCC4)C(=O)C3N2Nc2ccc(OC)cc2)CC1 (stereo not given in full)
4. COc1ccccc1CN1C(=O)c2ccccc2[C@@H](C(=O)NCC(C)C)[C@@H]1c1ccc(CO)cc1
5. CC(C)(C)OC(=O)CC[C@@]1(C(=O)N2CCCCC2)N=C(c2ccc(OCCCO)cc2)O[C@@H]1c1ccccc1CN=[N+]=[N-]

RESULT:
1: 0.116; 2: 0.0929; 3: 0.323; 4: -0.236; 5: 0.359

Hi team, please reply with composite z-score for each item in this list.
1. CN(C)CCCN1C(=O)[C@@]2(Cc3ccccc31)c1ccccc1C(=O)N(Cc1ccccc1)[C@H]2c1ccc(CO)cc1
2. C[C@@H]1ON(c2ccccc2)[C@H](c2ccccc2)[C@H]1C(=O)N1C(=O)OC[C@H]1Cc1ccccc1
3. COC(=O)[C@@]1(Cc2ccccc2)[C@H]2c3cc(C(=O)N(C)C)n(Cc4ccccn4)c3C[C@H]2CN1C(=O)c1ccccc1
4. CCCC=C(CCC)[C@@H](NC(=O)Cc1ccccc1)c1ccc(C(=O)OC)cc1
5. O=C1O[C@H](c2ccccc2)[C@H](c2ccccc2)N2[C@H]1[C@@H](C(=O)N1CCN(c3ncccn3)CC1)[C@]1(C(=O)Nc3ccc(C#CCCO)cc31)[C@H]2c1ccccc1OCCO
6. O=C1N(CCS(=O)(=O)c2ccccc2)Cc2ccccc2C[C@@]12COC(c1ccc(OCCCO)cc1)=N2
7. CCCCC(CC)C(O)C1C=CC2C(=O)NC(=O)C2N1Nc1ccccn1 (stereo not given)
8. COCC1=C([C@H](O)CCc2ccccc2)[C@H](CO)[C@@H]2C(=O)N(C)C(=O)[C@@H]2C1

RESULT:
1. -0.109
2. -0.0057
3. 0.127
4. 0.934
5. -0.0918
6. 0.384
7. 0.0866
8. 0.0893

Hi team, please reply with composite z-score for each item in this list.
1. O=C1c2ccccc2[C@](Cc2ccccc2I)(C(=O)NCC(F)(F)F)[C@H](c2ccc(CO)cc2)N1Cc1ccccc1
2. [N-]=[N+]=NCc1ccccc1C[C@]1(C(=O)NCCN2CCOCC2)COC(c2ccc(OCCCO)cc2)=N1
3. O=C1C2C=CC(C(O)c3ccccn3)N(Nc3ccccc3)C2C(=O)N1c1ccccc1 (stereo not given)
4. COC(=O)[C@@]1(Cc2ccc(OC)cc2)[C@H]2c3cc(C(=O)N(C)C)n(Cc4cc(C)n(C)n4)c3C[C@H]2CN1C(=O)c1ccccc1
5. [N-]=[N+]=NCc1ccccc1[C@H]1OC(c2ccc(OCCCO)cc2)=N[C@@]1(Cc1ccccc1N=[N+]=[N-])C(=O)NCCN1CCOCC1
6. COC(=O)[C@@]1(Cc2ccc(F)cc2)[C@H]2c3cc(C(=O)N4CCCC4)n(Cc4ccccc4)c3C[C@H]2CN1C(=O)c1ccccc1
7. COc1cc(NN2C(C(O)c3ccc(I)cc3)C=CC3C(=O)N(C)C(=O)C32)cc(OC)c1OC (stereo not given)
8. N#Cc1ccc(NN2C(C(O)c3ccco3)C=CC3C(=O)N(c4ccccc4)C(=O)C32)cc1 (stereo not given)

RESULT:
-0.0183
0.116
-0.0026
0.166
0.416
0.23
0.163
0.188

Hi team, please reply with composite z-score for each item in this list.
1. C[C@H]1ON(c2ccccc2)[C@@H](c2ccccc2)[C@@H]1C(=O)N1C(=O)OC[C@@H]1c1ccccc1
2. O=C1C[C@@](C(=O)NCc2ccccc2)(c2ccc([N+](=O)[O-])cc2)[C@@H](c2ccc(CO)cc2I)N1C1CCCCC1
3. C=CCC(OC(C)=O)[C@@H]1[C@@H](N(Cc2cccc3ccccc23)C(=O)c2ccc(C)cc2)c2cc(OCCCO)ccc2N1C(=O)c1ccc2ccccc2c1 (stereo not given in full)

RESULT:
[-0.0493, 0.446, 0.0311]

The reported numbers originate from PubChem BioAssay.
